Source of measurements: patent US20260242735A1

- targetOrTestSystem: human CD33 Q24E (human, UniProt P20138 18-364)
- Sequence (P20138 18-364 Q24E limits assumed): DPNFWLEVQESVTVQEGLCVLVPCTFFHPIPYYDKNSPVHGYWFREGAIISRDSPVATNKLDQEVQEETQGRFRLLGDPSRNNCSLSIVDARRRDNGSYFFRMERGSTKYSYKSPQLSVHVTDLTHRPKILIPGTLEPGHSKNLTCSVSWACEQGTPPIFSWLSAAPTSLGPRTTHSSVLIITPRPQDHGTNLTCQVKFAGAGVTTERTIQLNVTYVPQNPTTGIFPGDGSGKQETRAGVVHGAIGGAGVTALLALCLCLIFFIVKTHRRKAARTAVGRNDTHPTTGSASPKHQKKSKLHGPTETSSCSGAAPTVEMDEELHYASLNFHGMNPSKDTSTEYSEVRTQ
- assayComment: flow cytometry, mutant on cells, IgG
measurementType: Mean % WT Binding (% WT binding)
Supply the numeric figure in % WT binding, leaving out any unit text.

Which value of Mean % WT Binding has been reported for Refmab #4 (antibody, human IgG1, V domains shown, Tested in IgG format; human IgG1 Fc silent (PG-LALA)) VH: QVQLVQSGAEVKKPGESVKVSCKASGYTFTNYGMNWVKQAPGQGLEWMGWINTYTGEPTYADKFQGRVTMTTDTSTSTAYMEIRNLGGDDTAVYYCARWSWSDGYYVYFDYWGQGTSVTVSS VL: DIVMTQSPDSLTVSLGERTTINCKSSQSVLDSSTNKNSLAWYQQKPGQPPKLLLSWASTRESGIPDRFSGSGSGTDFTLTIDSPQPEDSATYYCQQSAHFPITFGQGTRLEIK in the records?
69.7

Which value of Mean % WT Binding has been reported for Refmab #2 (antibody, human IgG1, V domains shown, Tested in IgG format; human IgG1 Fc silent (PG-LALA)) VH: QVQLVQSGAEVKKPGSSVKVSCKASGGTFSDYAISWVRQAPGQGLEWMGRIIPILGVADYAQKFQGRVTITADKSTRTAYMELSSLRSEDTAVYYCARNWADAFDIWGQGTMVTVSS VL: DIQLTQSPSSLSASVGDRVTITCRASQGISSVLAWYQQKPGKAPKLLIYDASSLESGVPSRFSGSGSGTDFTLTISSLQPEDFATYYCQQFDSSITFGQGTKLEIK in the records?
63.7

Which value of Mean % WT Binding has been reported for Refmab #1 (antibody, human IgG1, V domains shown, Tested in IgG format; human IgG1 (Absolute Antibody hP67.6, Cat. No. Ab00283-10.0); also called hP67.6) VH: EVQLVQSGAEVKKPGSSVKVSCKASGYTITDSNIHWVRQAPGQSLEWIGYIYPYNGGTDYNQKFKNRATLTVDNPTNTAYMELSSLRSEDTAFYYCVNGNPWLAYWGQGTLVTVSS VL: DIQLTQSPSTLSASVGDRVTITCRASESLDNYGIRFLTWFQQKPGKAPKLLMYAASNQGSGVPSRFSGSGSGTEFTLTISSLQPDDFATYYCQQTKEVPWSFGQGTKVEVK in the records?
17.1

Which value of Mean % WT Binding has been reported for Refmab #3 (antibody, human IgG1, V domains shown, Tested in IgG format; human IgG1 Fc silent (PG-LALA)) VH: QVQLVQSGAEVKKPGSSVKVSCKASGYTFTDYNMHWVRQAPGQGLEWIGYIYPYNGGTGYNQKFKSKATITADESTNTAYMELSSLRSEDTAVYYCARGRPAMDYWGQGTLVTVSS VL: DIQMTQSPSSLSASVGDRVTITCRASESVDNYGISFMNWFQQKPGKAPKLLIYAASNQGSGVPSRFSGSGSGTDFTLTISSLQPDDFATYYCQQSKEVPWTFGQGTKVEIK in the records?
0.8
